target: Aromatase (Homo sapiens); assay: qHTS assay to identify aromatase inhibitors (AID 743083); conditions: MCF-7 aro ERE, testosterone-driven ERE luciferase, 24 h; series mostly up to 70.3 µM; further: nearly all actives have a fitted effect of over 55% in size
Records with an inconclusive call do not appear. The source made the active and inactive calls. The call rests on the fitted dose curve; in most records, active means well fitted inhibition curve with a large enough effect in the repeat runs; inconclusive means weak or mixed curves; inactive means no such curve, though single readings can be large or run the other way.
Labels: active, inactive

[
  {
    "structure-smiles-string": "O=C(O)c1cc(Cl)cc(Cl)c1",
    "class": "inactive"
  },
  {
    "structure-smiles-string": "CC(=O)OCC1=C(C(=O)O)N2C(=O)[C@@H](NC(=O)Cc3cccs3)[C@H]2SC1",
    "class": "inactive"
  },
  {
    "structure-smiles-string": "O=S(=O)(O)c1ccc2nc(-c3ccccc3)[nH]c2c1",
    "class": "inactive"
  },
  {
    "structure-smiles-string": "CC(C)(c1ccccc1)c1ccc(Nc2ccc(C(C)(C)c3ccccc3)cc2)cc1",
    "class": "inactive"
  },
  {
    "structure-smiles-string": "CN(C)c1ccc(C(=C2C=CC(=[N+](C)C)C=C2)c2ccccc2)cc1",
    "class": "active"
  },
  {
    "structure-smiles-string": "O=C(OCc1ccccc1)c1ccc(O)cc1",
    "class": "inactive"
  }
]
